Kindly state GI50 for each of the entries shown.
# Test system: 786-0
# METHOD_NOTES: NCI tumour cell line growth inhibition, 48 h
Calls of active or inactive are those of the source. Cut-off read from the data, not from the text of the source: active = GI50 up to about 1.1 µM and inactive = higher. Numbered stars: 1 amine (or outer) side, 2 acyl side, 3 side chain; on linkers, the order of the positions; unused ones are H or OH. Bridge positions count the residues as written; N and C are the ends. Square brackets hold non-standard residues; d marks the D form. Peptide text beside a SMILES is read from it. I, II: the chains in the order shown. Actinocin(9to1) = Cc1c2oc3c(C)ccc(C(=O)[*:1])c3nc-2c(C(=O)[*:2])c(N)c1=O; NMeH = CN[CH](Cc1c[nH]cn1)C(=O)O; Sar = CNCC(=O)O

Lookup result for CC(=O)NC1C(OCc2ccccc2)OC(CO)C(O)C1OCC(=O)NC(C)C(=O)NC(CCC(=O)OCCNC(=O)c1cccc2cc3ccccc3nc12)C(N)=O (configuration not stated) ; measured GI50: 18.7 µM (inactive)

GI50 measured on Cc1c2oc3c(C)ccc(C(=O)NC4C(=O)NC(C(C)C)C(=O)N5CCCC5C(=O)N(C)CC(=O)N(C)C(Cc5cnc[nH]5)C(=O)OC4C)c3nc-2c(C(=O)NC2C(=O)NC(C(C)C)C(=O)N3CCCC3C(=O)N(C)CC(=O)N(C)C(Cc3cnc[nH]3)C(=O)OC2C)c(N)c1=O (configuration not stated) (I: TVP[Sar][NMeH] / II: TVP[Sar][NMeH]; ester I:1-I:C, II:1-II:C; linker I:N-II:N via Actinocin(9to1); configuration not given here) = 45.6 µM (inactive)

GI50 recorded for this compound, N#CNc1nc(C(=O)Nc2ccc(Cl)cc2)cc(-c2ccccc2)n1 , is > 100 µM (inactive)

GI50 measured on O=c1c2c(sc3ccccc13)NCN(CCc1ccccc1)C2 = 29.7 µM (inactive)

GET /value?item= O=C(CSc1nc2ccccc2c2ccccc12)c1ccccc1 &field=GI50 returns > 100 µM (inactive)

// Fc1ccccc1-c1nn2c(C34CC5CC(CC(C5)C3)C4)nnc2s1 : GI50 value = > 100 µM (inactive)

The recorded GI50 for O=Cc1[nH]c(=O)[nH]c(=O)c1C(=O)O is > 100 µM (inactive)
